Test: Log P by HPLC on reversed phase, method [a], acidic range (0.1% formic acid)
Assay type: physicochemical
Conditions: LC-UV, 0.1% formic acid in water and acetonitrile
Reported LogP values are given for each entry in this list.

{"columns": ["Cpd Smiles", "Readout Kind", "Reported Measurement"],
 "data": [
  ["Cc1cccc(-n2ncc(NC(=O)c3cccnc3C(F)F)c2C(C)C)c1", "LogP", "2.50^[a]"]
]}

Measured LogP, "O=C(Nc1cnn(-c2cccc(C(F)(F)F)c2)c1C(F)F)c1cccnc1C(F)F" : 2.88^[a]

Measured LogP, "CC(C)(C)c1ccc(-n2ncc(NC(=O)c3cccnc3C(F)F)c2C(F)(F)F)cc1" : 3.79^[a]

Measured LogP, "O=C(Nc1cnn(-c2ccc(Cl)cc2)c1Br)c1cccnc1C(F)F" : 2.50^[a]

Measured LogP, "O=C(Nc1cnn(-c2ccc(C(F)(F)F)cc2)c1-c1ccccc1)c1cccnc1C(F)F" : 3.24^[a]

Measured LogP, "O=C(Nc1cnn(-c2cccc(Br)c2)c1C(F)(F)F)c1cccnc1C(F)F" : 3.09^[a]

Measured LogP, "Cc1cnc(C(F)F)c(C(=O)Nc2cnn(-c3c(Cl)cccc3Cl)c2C(F)(F)F)c1" : 3.16^[a]

Measured LogP, "O=C(Nc1cnn(-c2ccccc2C(F)(F)F)c1-c1cccc(Cl)c1)c1cccnc1C(F)F" : 3.06^[a]

Measured LogP, "CCCCn1ncc(NC(=O)c2cccnc2C(F)F)c1C" : 1.69^[a]

Measured LogP, "CCC(CC)n1ncc(NC(=O)c2cccnc2C(F)F)c1C" : 1.89^[a]
